Test system: B6C3F1 mice, ip Sarcoma M5076, median survival T/C
ASSAY NAME: NCI In Vivo Anticancer Drug Screen. Data for tumor model Sarcoma M5076 (intraperitoneal) in B6C3F1 mice
RUN CONDITIONS: endpoint: median survival time; dose: 50.0 mg/kg/injection; schedule: Q04DX004 (ip); vehicle: saline + Tween-80 + alcohol; higher = longer survival
Inconclusive results and toxic doses are left out.
Parameter T/C: see the listing below.

[[record]]
compound = "O=C1NCC(Br)C(=O)N1 (centres undefined)"
test_system = "B6C3F1 mice, ip Sarcoma M5076, median survival T/C"
measurement_type = "T/C"
val = "95 % of control"


For this compound ( CC(=O)Oc1ccccc1O ), measured T/C is 98 % of control

T/C reading for CNC(=S)C#N : 89 % of control

So, COc1cc2c(c3c1c(=O)c1ccccc1n3C)C=C([N+](=O)[O-])C(C)(C)O2 ? Its T/C was 90 % of control

====

Test system: B6C3F1 mice, ip Sarcoma M5076, median survival T/C
ASSAY NAME: NCI In Vivo Anticancer Drug Screen. Data for tumor model Sarcoma M5076 (intraperitoneal) in B6C3F1 mice
RUN CONDITIONS: endpoint: median survival time; dose: 6.25 mg/kg/injection; schedule: Q04DX004 (ip); vehicle: Klucel (hydroxypropylcellulose) (HPC)
Experimental: The antitumor activity of compounds was measured in mice bearing transplantable tumors. Survival or tumor size were measured and the results are expressed as the measurement made in the treated group (T) divided by the measurement made in the vehicle treated control group (C). The tumor model used in this assay is Sarcoma M5076 (intraperitoneal) in B6C3F1 mice
Inconclusive results and toxic doses are left out. Rule for the calls: active = survival T/C of 150% or more; inactive = T/C below 125% in these data.
Lab note: assign the record to one of active, inactive

Worked cases, answers included:
[[record]]
molecule = "COC1CC2C=C(C)/C=C/C=C/C(=O)NC(c3ccccc3)C/C=C/CCC(O)CC(=O)C2=C1O (configuration not stated)"
assigned_class = "inactive"

[[record]]
molecule = "CC(C)(C)c1cc2c3c(c1)Oc1cc(C(C)(C)C)cc4c1C3(O)c1c(cc(C(C)(C)C)cc1O4)O2"
assigned_class = "inactive"

[[record]]
molecule = "COc1cc2c(c(OC)c1OC)-c1cccc(=O)cc1C(NC(C)=O)CC2 (configuration not stated)"
assigned_class = "inactive"

[[record]]
molecule = "Nc1c(/C=C/c2cc3cc(C4=NCCN4)ccc3o2)[nH]c2cc(C3=NCCN3)ccc12"
assigned_class = "inactive"

[[record]]
molecule = "O=S1(=O)CS(=O)(=O)OCCO1"
assigned_class = "active"


Incoming: Please indicate how the test categorized Cc1nc2ccccc2c(N)c1-c1cc(C)c2c(C)nc3ccccc3c2n1 .
Outgoing: inactive

Incoming: Recorded test outcome, item O=C1CCCCCC2=NC12 (configuration not stated)
Outgoing: inactive

Incoming: For this molecule, state the assay outcome: C=C(Cl)C(=NC(C)(C)C)Nc1ccccc1C
Outgoing: inactive

Incoming: // outcome(item) with item = O=C1N2CCNc3ccccc3C(c3ccccc3)N1CC2 (configuration not stated)
Outgoing: inactive

Incoming: Please state the recorded outcome for this molecule: CN=C(NC)c1ccc(NC(=O)/C=C\c2ccc(/C=C/C(=O)Nc3ccc(C(=NC)NC)cc3)cc2)cc1
Outgoing: inactive

Incoming: Status in this test for O=C([O][Bi]([c]1ccccc1)[c]1ccccc1)c1ccccc1 ?
Outgoing: inactive

Incoming: Check the results log: what was the call for CC1=CCCC2C1(C)CCC(C)C2(C)Cc1cc(O)ccc1O (configuration not stated) ?
Outgoing: inactive

Incoming: What did the test return for COC1OC(COC(C)=O)C(OC(C)=O)C(OC(C)=O)[CH]1[Hg][O]C(C)=O (configuration not stated) ?
Outgoing: inactive

Incoming: Recorded test outcome, item CCC1=C(c2cccc(OC(C)=O)c2)C(C)c2ccc(OC(C)=O)cc21 (configuration not stated)
Outgoing: inactive

Incoming: Just curious, what result did CCCCCC[Se][Se]CCCCCC get here?
Outgoing: inactive

Incoming: Could you check what this test reported for O=[N+]([O-])c1ccc([I+]c2ccccc2)cc1 ?
Outgoing: inactive

Incoming: Field: outcome | Entry: O=S(CCCl)CCCl
Outgoing: inactive
